Experiment: molar heat capacity at constant pressure
Conditions: 303.15 K; 101.33 kPa; Liquid; Small sample (50 mg) DSC
Endpoint: molar heat capacity at constant pressure (J/K/mol)

CCCCCC(=O)[O-].CCCCCCCCCCCCCC[P+](CCCCCC)(CCCCCC)CCCCCC [trihexyl(tetradecyl)phosphonium hexanoate] ... 1149.5
CC(=O)[O-].CCCCCCCCCCCCCC[P+](CCCCCC)(CCCCCC)CCCCCC [trihexyl(tetradecyl)phosphonium acetate] ... 1101.5
CCCCCCCCCC(=O)[O-].CCCCCCCCCCCCCC[P+](CCCCCC)(CCCCCC)CCCCCC [trihexyltetradecylphosphonium decanoate] ... 1199.5
CCCCCCCC(=O)[O-].CCCCCCCCCCCCCC[P+](CCCCCC)(CCCCCC)CCCCCC [trihexyl(tetradecyl)phosphonium octanoate] ... 1160.7
CCCC(=O)[O-].CCCCCCCCCCCCCC[P+](CCCCCC)(CCCCCC)CCCCCC [trihexyl(tetradecyl)phosphonium butyrate] ... 1118.5
